- TEST_TARGET: chymotrypsin (ChTry) (Bos taurus)
- ASSAY_NAME: Inhibitory activity toward chymotrypsin, fluorogenic substrate, microplate reader
- Assay type: biochemical
- EXPERIMENTAL_CONTEXT: 10 min pre-incubation at 37°C, pH 7,5, Suc-Ala-Ala-Pro-Phe-AMC 5µM; NI = brak inhibicji (no inhibition)
TEST_READOUT: ChyTr Kobs/[I]

COMPOUND	RESULT
COC(=O)c1ccc(OP(=O)(Oc2ccc(C(=O)OC)cc2)C(CC(C)C)NC(=O)C2CCCN2C(=O)C(NC(=O)CCCCC2SCC3NC(=O)NC32)C(C)C)cc1 (centres unmarked)	5.2*10^4 M^-1S^-1
CSc1ccc(OP(=O)(Oc2ccc(SC)cc2)C(CC(C)C)NC(=O)C2CCCN2C(=O)C(NC(=O)CCCCC2SCC3NC(=O)NC32)C(C)C)cc1 (centres unmarked)	4.5*10^4 M^-1S^-1
CSc1ccc(OP(=O)(Oc2ccc(SC)cc2)C(CC(C)C)NC(=O)C2CCCN2C(=O)CCCCC2SCC3NC(=O)NC32)cc1 (centres unmarked)	2.9*10^3 M^-1S^-1
CCC(NC(=O)C1CCCN1C(=O)C(NC(=O)CCCCC1SCC2NC(=O)NC21)C(C)C)P(=O)(Oc1ccc(SC)cc1)Oc1ccc(SC)cc1 (centres unmarked)	1.2*10^3 M^-1S^-1
CC(C)C(NC(=O)CCC(=O)NCCCCCNC(=O)CCCCC1SCC2NC(=O)NC21)C(=O)N1CCCC1C(=O)NC(Cc1ccccc1)P(=O)(Oc1ccccc1)Oc1ccccc1 (centres unmarked)	7.0*10^4 M^-1S^-1
COc1ccc(OP(=O)(Oc2ccc(OC)cc2)C(CC(C)C)NC(=O)C2CCCN2C(=O)C(NC(=O)CCCCC2SCC3NC(=O)NC32)C(C)C)cc1 (centres unmarked)	7.4*10^3 M^-1S^-1
CC(C)C(NC(=O)CCCCC1SCC2NC(=O)NC21)C(=O)N1CCCC1C(=O)NC(Cc1ccccc1)P(=O)(Oc1ccccc1)Oc1ccccc1 (centres unmarked)	5.6*10^4 M^-1S^-1
CSc1ccc(OP(=O)(Oc2ccc(SC)cc2)C(Cc2ccccc2)NC(=O)C2CCCN2C(=O)C(NC(=O)CCCCC2SCC3NC(=O)NC32)C(C)C)cc1 (centres unmarked)	1.0*10^5 M^-1S^-1
